- subject-of-test: IDO1 (Homo sapiens)
- Construct: endogenous in cells
- Sequence (P14902 whole entry): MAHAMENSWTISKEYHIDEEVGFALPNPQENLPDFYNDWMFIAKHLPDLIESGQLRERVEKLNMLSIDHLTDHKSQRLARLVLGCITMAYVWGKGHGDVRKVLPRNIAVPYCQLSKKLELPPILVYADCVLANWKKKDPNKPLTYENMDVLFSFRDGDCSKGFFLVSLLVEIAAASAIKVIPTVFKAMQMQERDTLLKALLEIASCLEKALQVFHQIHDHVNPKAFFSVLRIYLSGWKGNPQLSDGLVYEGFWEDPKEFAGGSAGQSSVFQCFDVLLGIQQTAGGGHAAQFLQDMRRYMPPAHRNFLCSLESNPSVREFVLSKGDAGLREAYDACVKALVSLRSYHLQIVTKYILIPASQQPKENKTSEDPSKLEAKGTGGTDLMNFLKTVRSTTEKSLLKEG
- measurement-description: IDO1 activity in U937 cells, kynurenine formation after IFN-γ induction
- condition-notes: IFN-γ induced, FIG. 2, read-out: IC50 for IDO inhibition in a cellular assay
pIC50: −log10 of the molar value.
endpoint-label: pIC50

Ask: Respond only with pIC50 recorded for Cc1cc(C2CCCCC2)n(O)c(=O)c1
Reply: ~5.70

###

- Tested on: HIF1
- measurement-description: HIF1 stabilization in cells from B6 HIF-luciferase reporter mice, assayed ex vivo
- Assay type: cell-based, mouse
- condition-notes: Mus musculus; follow-up study, FIG. 1; read-out: apparent EC50 for HIF level stimulation
endpoint-label: pEC50
In textbook form, pEC50 equals minus log to base ten of the concentration in mol/L.

Ask: Retrieve pEC50 on HIF1; query Cc1cc(C2CCCCC2)n(O)c(=O)c1
Reply: 5.30

Origin of measurements: patent US20240156795A1
